meta.source: the supplement of paper PMC10567573

B1: NEUROD6 (parent)
chain: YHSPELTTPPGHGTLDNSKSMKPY

# Variants of: B1
# MEASUREMENT_NOTES: protein stability index of a GFP-peptide fusion (GPS, HEK-293T) (PSI 1-6); higher = more stable;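 also: lentivirally expressed fusions sorted by FACS into six bins by GFP to DsRed ratio, PSI derived from sequencing read proportions per bin multiplied by bin number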
# PARTICULARS: c terminus: a fixed tail appended
// label = satisfied if protein stability index is not less than 2, otherwise not satisfied

Sample answers from the record:
# MUTATION_NOTATION, QUALITATIVE_LABEL
records = [
    ("Y1N", "satisfied"),
    ("T7N", "satisfied"),
    ("G11Y", "satisfied"),
    ("K22C", "not satisfied"),
    ("T7Q", "satisfied"),
    ("L15H", "satisfied"),
]

Prompt line: Does H2G have a reported protein stability index of at least 2?
Response line: satisfied

Prompt line: Does D16F have a reported protein stability index of at least 2?
Response line: not satisfied

Prompt line: Does N17M have a reported protein stability index of at least 2?
Response line: not satisfied

Prompt line: Does E5V have a reported protein stability index of at least 2?
Response line: satisfied

Prompt line: Does P4R have a reported protein stability index of at least 2?
Response line: satisfied

Prompt line: Does H2K have a reported protein stability index of at least 2?
Response line: satisfied

Prompt line: Does Y24A have a reported protein stability index of at least 2?
Response line: satisfied

Prompt line: Does S3N have a reported protein stability index of at least 2?
Response line: not satisfied

Prompt line: Does H2S have a reported protein stability index of at least 2?
Response line: satisfied

Prompt line: Does T14D have a reported protein stability index of at least 2?
Response line: satisfied

Prompt line: Does S3V have a reported protein stability index of at least 2?
Response line: satisfied

Prompt line: Does P9M have a reported protein stability index of at least 2?
Response line: not satisfied

Prompt line: Does M21Y have a reported protein stability index of at least 2?
Response line: not satisfied

Prompt line: Does T8A have a reported protein stability index of at least 2?
Response line: satisfied

Prompt line: Does S20P have a reported protein stability index of at least 2?
Response line: satisfied

Prompt line: Does H12P have a reported protein stability index of at least 2?
Response line: satisfied
